Numbers sourced from the RNAGym collection of RNA variant scans (doi:10.7554/elife.90254).

B1: OR4K15 (parent)
chain: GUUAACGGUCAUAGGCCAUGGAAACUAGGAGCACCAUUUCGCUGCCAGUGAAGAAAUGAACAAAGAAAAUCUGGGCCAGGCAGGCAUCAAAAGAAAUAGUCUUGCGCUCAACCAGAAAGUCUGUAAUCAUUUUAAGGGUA

# Variants of: B1
# ASSAY_SUMMARY: self-cleavage, relative activity (ratio to wild type); higher = more cleavage; in vitro, sequencing; the parent is a self-cleaving ribozyme
Record Satisfied whenever self-cleavage is at 0.7 or higher; record Not satisfied when lower.

sequence_code=GUUAACGGUCAUAGGCCAUGGAAACUAGGAGCACCAUUUCGCUGCCAGUGAUGAAAUGAACAAAGAAAAUCUGGGCCAGGCAGGCAUCAAAAGGAAUAGUCUUGCGCUCAACCAGAAAGUCUGUAAUCAUUUUAAGGGUA assigned_class=Satisfied
sequence_code=GUUAACGGUCAUAGGCCAUGGAAACUAGGAGCACCAUUUCGCUGCCAGUGAAGAAAUGAACAAAGAAAAUCUGGGCCAGGCAGGCAUCAAAGGAAAUAGUCUUGCGCUCAACCAGAAAGUCCGUAAUCAUUUUAAGGGUA assigned_class=Satisfied
sequence_code=GUUAACGGUCAUAGGCCAUGGAAACUCGGAGCUCCAUUUCGCUGCCAGUGAAGAAAUGAACAAAGAAAAUCUGGGCCAGGCAGGCAUCAAAAGAAAUAGUCUUGCGCUCAACCAGAAAGUCUGUAAUCAUUUUAAGGGUA assigned_class=Satisfied
sequence_code=GUUAACGGUCAUAGGCCAUGGAAACUAGGAGCACCAUUUCGCUGCCAGUGAAGAAAUGAACAAAGAAAAUCUGGGCCAGGCAGGCAUCAAAAGAAAUAGUCUUGCGCUCAACCAGAAAGUCCGUAAUCAUUUUAUGGGUA assigned_class=Satisfied
sequence_code=GUUAACGGUCAUAGGCCAUGGAAACUAGGAGCACCAUUUCGCUGCCAGUGAAGAAAUGAACAAAGAAAAUCUGGGCCAGGCAGGCAUCAAAAGAAAUAGUCUCGCGCUCAACCAGAAGGUCUGUAAUCAUUUUAAGGGUA assigned_class="Not satisfied"
sequence_code=GUGAACGGUCAUAGGCCAUGGAAACUAGGAGCACCACUUCGCUGCCAGUGAAGAAAUGAACAAAGAAAAUCUGGGCCAGGCAGGCAUCAAAAGAAAUAGUCUUGCGCUCAACCAGAAAGUCUGUAAUCAUUUUAAGGGUA assigned_class=Satisfied
sequence_code=GUUAACGGUCAUAGGCCAUGGAAACUAGGAGCACCAUUUCGCUGCCAGUGAAGAAAUGAACAAAGAAAAUCUGGGCCAGGCAGGCAUCAAAAGAAAUAGUCCUGCGCUCAACCAGAAAGUCUGUAAUCAUUUUAAGGGAA assigned_class=Satisfied
sequence_code=GUUAACGGUCAUAGGCCAUGGAAACCAGGAGCACCAUUUCGCUGCCAGUGAAGAAAUGAACUAAGAAAAUCUGGGCCAGGCAGGCAUCAAAAGAAAUAGUCUUGCGCUCAACCAGAAAGUCUGUAAUCAUUUUAAGGGUA assigned_class=Satisfied
sequence_code=GUUAACGGUCAUAAGCCAUGGAAACUAGGAGCACCAUUUCGCUGCCAGUGGAGAAAUGAACAAAGAAAAUCUGGGCCAGGCAGGCAUCAAAAGAAAUAGUCUUGCGCUCAACCAGAAAGUCUGUAAUCAUUUUAAGGGUA assigned_class=Satisfied
sequence_code=GUUAACGGUCAUAGGCUAUGGAAACUAGGAGCGCCAUUUCGCUGCCAGUGAAGAAAUGAACAAAGAAAAUCUGGGCCAGGCAGGCAUCAAAAGAAAUAGUCUUGCGCUCAACCAGAAAGUCUGUAAUCAUUUUAAGGGUA assigned_class=Satisfied
sequence_code=GUUAACGGUCAUAGGCCAUGGAAACUAGGAGCACCAUUUCGCUGCCAGUGAAGAAAUGAACAAAGAAAAUCUGGACCAGGCAGGCAUCAAAAGAAAUAGUCUUGCGCUCAACCAGUAAGUCUGUAAUCAUUUUAAGGGUA assigned_class="Not satisfied"
sequence_code=GUUACCGGUCAUAGGCUAUGGAAACUAGGAGCACCAUUUCGCUGCCAGUGAAGAAAUGAACAAAGAAAAUCUGGGCCAGGCAGGCAUCAAAAGAAAUAGUCUUGCGCUCAACCAGAAAGUCUGUAAUCAUUUUAAGGGUA assigned_class="Not satisfied"
sequence_code=GUUAACGGUCAUAGGCCAUGGAAACUAGGAGCACCAUUUCGCUGCCAGUGAAGAAAUGAACAAAGAAAAUCUGGCCCAGGCAGGCAUCAAAAGAAAUAGUCUUGCGCUCAACCAGAAAGUCUGUACUCAUUUUAAGGGUA assigned_class="Not satisfied"
sequence_code=GUUAACGGUCAUAGGCCAUGGAAACUAGGAGCACCAUUUCACUGCCAGUGAAGAAAUGAACAAAGAAAAUCUGGGCCAGGCAGGCAUCAAAAGAAAUAGUCUUGCGCUCAACCAGAAAGUCUGUAAUCAUUCUAAGGGUA assigned_class=Satisfied
sequence_code=GUUAACGGUCAUAGGCCAUGGAAACUAGGAGCACCAUUUCGCUGCCAGUGAAGAAAUGAACGAAGAAAAACUGGGCCAGGCAGGCAUCAAAAGAAAUAGUCUUGCGCUCAACCAGAAAGUCUGUAAUCAUUUUAAGGGUA assigned_class=Satisfied
sequence_code=GUUAACGGUCAUAGGCCAUGGAAACUAGGAGCACCAUCUCGCUGCCAGUGAAGAAAUGAACAAAGAAAAUCUGAGCCAGGCAGGCAUCAAAAGAAAUAGUCUUGCGCUCAACCAGAAAGUCUGUAAUCAUUUUAAGGGUA assigned_class="Not satisfied"
sequence_code=GUUAACGGUCAUAGGCCAUGGAAACUAGGAGCACCAUUUCGCUGCCAGUGAAGAAAUGAACGAAGAAAAUCUGGGCCAGGCAGCCAUCAAAAGAAAUAGUCUUGCGCUCAACCAGAAAGUCUGUAAUCAUUUUAAGGGUA assigned_class="Not satisfied"
sequence_code=GUUAACGGUCAUAGGCCAUGGAAACUAGGAGCACCAUUUCGCUGCCAGUGAAGAAAUGAACAAAGAAAAUCUGGGUCAGGCAGGCAUCAAAAGAAAUAGUCUUGCGCACAACCAGAAAGUCUGUAAUCAUUUUAAGGGUA assigned_class="Not satisfied"
sequence_code=GUUAACGGUCAUAGGCCAUGGAAACUAGGGGCACCAUUUCGCUGCCAGUGAAGAAAUGAACAAAGAAAAUCUGGGCCAGGCAGGCAUCAAAAGAAAUAGUCUUGCUCUCAACCAGAAAGUCUGUAAUCAUUUUAAGGGUA assigned_class="Not satisfied"
sequence_code=GUUAACGGUCAUAGGCCAUGGAAACUAGGAGCACCAUUUCGCUGCCAGUGGAGAAAUGAACAAAGAAAAUCUGGGCCAGGCAGGCAUCAAAAGAAAUAGUCUUGCGCUCAACCAGAAAGUCUGUAAUCAUUUAAAGGGUA assigned_class=Satisfied
sequence_code=GUUAACGGUCAUAUGCCAUGGAAACUAGGAGCACCAUUUCGCUGCCAAUGAAGAAAUGAACAAAGAAAAUCUGGGCCAGGCAGGCAUCAAAAGAAAUAGUCUUGCGCUCAACCAGAAAGUCUGUAAUCAUUUUAAGGGUA assigned_class=Satisfied
